system: mutant SOD1 toxicity cell model, protection read-out; test: cell protection against mutant SOD1 damage (AID 1602)
Inconclusive results are not listed.
measurement-kind: EC50

Sample records with EC50:
O=C(O)c1ccccc1OP(=O)(O)O	75 µM
CC(CCc1ccccc1)NCC(O)c1ccc(O)c(C(N)=O)c1 (configuration not stated)	50 µM
CN(C)CCOC(=O)C(c1ccccc1)C1(O)CCCC1 (configuration not stated)	50 µM

What value of EC50 has been reported for the following compound? "CC(=O)OCC1=C(C(=O)O)N2C(=O)[C@@H](NC(=O)CSc3ccncc3)[C@H]2SC1" 50 µM

Subsequent entry: CCN1CCN(C(=O)NC(C(=O)NC2C(=O)N3C(C(=O)O)=C(CSc4nnnn4C)CSC23)c2ccc(O)cc2)C(=O)C1=O (configuration not stated) 50 µM

Subsequent entry: Cn1nnnc1SCC1=C(C(=O)O)N2C(=O)C(NC(=O)C(OC=O)c3ccccc3)C2SC1 (configuration not stated) 50 µM

Subsequent entry: "CCn1cc(C(=O)O)c(=O)c2cc(F)c(N3CCNCC3)cc21" 75 µM
